The origin of these recorded values is patent US20210230266A1.

Biological target: T1, Human IL-11 (human, UniProt P20809 22-199)
T1 construct: Recombinant human IL-11 (GenScript Cat. No. Z03108-1) or IL-11 secreted by human cells; the mature form is said to have 178 residues; also called recombinant human IL-11; endogenously produced IL-11
T1 sequence: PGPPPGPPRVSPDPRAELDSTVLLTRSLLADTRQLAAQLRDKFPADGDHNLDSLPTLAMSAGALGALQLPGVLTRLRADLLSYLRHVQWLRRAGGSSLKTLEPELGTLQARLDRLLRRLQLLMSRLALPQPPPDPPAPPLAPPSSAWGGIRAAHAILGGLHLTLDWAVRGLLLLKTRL
Experiment: ELISA
readout-label: hIL11 - average signal

Examples with answers:
binder	hIL11 - average signal
YU112-C09 (antibody) QVQLVQSGGGVVQPGRSLRLSCAASGFTFGSYGMHWVRQAPGKGLEWVAVISYDGSNKYYADSVKGRFTISRDNSKNTLYLQMNSLRAEDTAVYYCAKGSYYFDYWGQGTLVTVSSGSASAPKLEEGEFSEARVETTLTQSPATLSVSPGERATLSCRASQSFSSSYLAWYQQKPGQAPRLLIYGASRRAPGIPDRFSGSGSGTDFSLTISRLEPEDFAVYYCQQSSTSPTWAFGRGTKVEVK	0.593
YU100-E11 (antibody) QVQLVESGGGVVQPGRSLRLSCAASGFTFSSYGMHWVRQAPGKGLEWVAVISYDGSNKYYADSVKGRFTISRDNSKNTLYLQMNSLRAEDTAVYYCARIMGYDYGDYDVVDYWGQGTLVTVSSGSASAPKLEEGEFSEARVQSALTQPRSVSGSPGQSVTISCTGTSSDVGGYNYVSWYQQHPGKAPKLMIYDVSKRPSGVPDRFSGSKSGNTASLTISGLQAEDEADYYCCSYAGSYTWVFGGGTKLTVL	0.268

# input for lookup
Ask | Item under review: YU100-G01 (antibody) QVQLVQSGGGVVQPGRSLRLSCAASGFTFSSYGMHWVRQAPGKGLEWVAVISYDGSNKYYADSVKGRFTISRDNSKNTLYLQMNSLRAEDTAVYYCAKIGATDPLDYWGQGTLVTVSSGSASAPKLEEGEFSEARVQSALTQPRSVSASPGQSVTISCTGTSSDVGAYNYVSWYQQHPGKAPKLMLYDVNKRPSGVPDRFSGSKSGNTASLTISRLQAEDEADYYCCSYAGSYTWVFGGGTKLTVL . Reported hIL11 - average signal?
Reply | 0.205
